Quick reference: TGI of the listed items.
System: SNB-19 CNS
Experimental Protocol: NCI tumour cell line growth inhibition, 48 h
Reported Endpoint: TGI

[[record]]
compound = "Cc1cn(CCC(N)C(=O)O)c(=O)[nH]c1=O (stereo not drawn)"
result = "> 100 µM"

[[record]]
compound = "COc1ccc(-c2nsc3c2NC(=O)CC3c2ccc3c(c2)OCCO3)cc1 (stereo not drawn)"
result = "> 100 µM"

[[record]]
compound = "N#CCCN(CCC#N)c1ccc(/C=C2\\SC(=S)NC2=O)cc1"
result = "> 100 µM"


* * *

Listed here: items and their measured TGI.
System: TK-10 renal
Experimental Protocol: NCI tumour cell line growth inhibition, 48 h
Reported Endpoint: TGI

[[record]]
smiles_string = "O=C1CSC(c2ccc(-c3nc4ccccc4[nH]3)cc2)=N1"
system_name = "TK-10 renal"
reported_endpoint = "TGI"
result = "> 50 µM"

[[record]]
smiles_string = "O=C1OCC(c2ccc(O)cc2)=C1c1cc(O)c(O)c(O)c1"
system_name = "TK-10 renal"
reported_endpoint = "TGI"
result = "> 100 µM"

[[record]]
smiles_string = "COc1ccc(N2C(=O)/C(=C/C(Cl)=C/c3ccc([N+](=O)[O-])cc3)SC2=S)cc1"
system_name = "TK-10 renal"
reported_endpoint = "TGI"
result = "> 100 µM"

